Every entry's value here was drawn from the MegaScale stability set (Tsuboyama et al. 2023).

B1: EHEE_rd2_0196 (parent)
chain: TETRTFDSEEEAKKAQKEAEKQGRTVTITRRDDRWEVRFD

- Variants of: B1
- ASSAY METHOD TEXT: folding stability dG (cDNA display proteolysis); higher = more stable
- RUN PARAMETERS: PBS, room temperature
Values of folding stability dG greater than or equal to 2 kcal/mol map to 1; values below map to 0.

R24V: 1

Assess whether reported folding stability dG for `S8P` sits at 2 kcal/mol or higher.
0

Does folding stability dG meet or surpass 2 kcal/mol for `R34N` ?
1

Decide: folding stability dG of `E9D` >= 2 kcal/mol?
0

Please check the record `E9T` and state if its folding stability dG is at or above 2 kcal/mol.
0

Determine whether this variant has folding stability dG no lower than 2 kcal/mol: `A12H`
0
